All figures here come from patent US10703748B2.

tested on: α-smooth muscle actin (aSMA) positive LL29 cells; assay: Inhibition of the fibrotic process: αSMA staining in TGF-β1 treated LL29 fibroblasts from IPF patients; conditions: Homo sapiens, Fibroblast, 96 h
MEASURED PROPERTY: EC50 (nM)

>  <COMPOUND STRUCTURE>
Cc1ncc(-c2ccc3cnc(NC(=O)N4CCC(N5CCOCC5)CC4)cc3n2)o1

>  <STUDY SYSTEM>
α-smooth muscle actin (aSMA) positive LL29 cells

>  <UNIT INFO>
nM

>  <RELATION SYMBOL>
>

>  <DATA VALUE>
10000

$$$$
>  <COMPOUND STRUCTURE>
Cn1cc(-c2ccc3cnc(NC(=O)C4CCN(S(C)(=O)=O)CC4)nc3c2)cn1

>  <STUDY SYSTEM>
α-smooth muscle actin (aSMA) positive LL29 cells

>  <UNIT INFO>
nM

>  <RELATION SYMBOL>
>

>  <DATA VALUE>
10000

$$$$
>  <COMPOUND STRUCTURE>
CC(C)CN1CCC(C(=O)Nc2cc3cc(-c4cnn(C)c4)ncc3cn2)CC1

>  <STUDY SYSTEM>
α-smooth muscle actin (aSMA) positive LL29 cells

>  <UNIT INFO>
nM

>  <RELATION SYMBOL>
=

>  <DATA VALUE>
2500

$$$$
>  <COMPOUND STRUCTURE>
C[C@H]1CCCN1CC(=O)Nc1ncc2ccc(-c3cnn(C)c3)cc2n1

>  <STUDY SYSTEM>
α-smooth muscle actin (aSMA) positive LL29 cells

>  <UNIT INFO>
nM

>  <RELATION SYMBOL>
=

>  <DATA VALUE>
2140

$$$$

* * *

molecular target: GSK3β kinase (Homo sapiens, UniProt P49841); assay: GSK3β kinase activity (Ser/Thr 09 peptide Z-lyte FRET assay); type: biochemical; conditions: recombinant kinase, 46 μM ATP, one hour at room temperature; read-out: EC50
Sequence (P49841 whole entry): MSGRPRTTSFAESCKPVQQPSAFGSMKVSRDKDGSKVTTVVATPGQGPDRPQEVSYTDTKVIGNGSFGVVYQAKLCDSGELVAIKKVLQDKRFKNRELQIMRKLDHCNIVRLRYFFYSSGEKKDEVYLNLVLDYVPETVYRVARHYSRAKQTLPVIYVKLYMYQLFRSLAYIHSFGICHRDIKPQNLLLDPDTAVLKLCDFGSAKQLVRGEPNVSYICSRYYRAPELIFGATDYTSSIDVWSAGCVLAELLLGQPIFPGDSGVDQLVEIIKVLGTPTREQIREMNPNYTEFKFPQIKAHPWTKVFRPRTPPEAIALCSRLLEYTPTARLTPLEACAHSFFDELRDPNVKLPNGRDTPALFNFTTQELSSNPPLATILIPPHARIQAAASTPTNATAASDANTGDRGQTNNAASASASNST
pEC50: −log10 of the molar value.
Reported pEC50 by item:

>  <COMPOUND>
CN1CCN(c2ncc(C(=O)Nc3cc4nc(-c5cnn(C)c5)ccc4cn3)s2)CC1 [Compound 4539]

>  <RELATION SYMBOL>
=

>  <pEC50>
5.65

$$$$
>  <COMPOUND>
Cn1cc(-c2ccc3cnc(NC(=O)C4CCN(Cc5ncco5)CC4)nc3c2)cn1 [Compound 1003]

>  <RELATION SYMBOL>
=

>  <pEC50>
6.58

$$$$
>  <COMPOUND>
COC1CCN(CC(=O)Nc2ncc3ccc(-c4cn(C)nn4)cc3n2)CC1 [Compound 1264]

>  <RELATION SYMBOL>
=

>  <pEC50>
7.77

$$$$
>  <COMPOUND>
CC(C)CN1CCC(C(=O)Nc2cc3nc(-c4cnn(C)c4)ccc3cn2)CC1 [Compound 16]

>  <RELATION SYMBOL>
=

>  <pEC50>
6.56

$$$$
>  <COMPOUND>
CN1CCC(N(C)c2cc(C(=O)Nc3ncc4ccc(-c5cn(C)nn5)cc4n3)ccn2)CC1 [Compound 1288]

>  <RELATION SYMBOL>
=

>  <pEC50>
6.75

$$$$
>  <COMPOUND>
CN1CCN(c2cc(C(=O)Nc3cc4cc(-c5cn(C)nn5)cnc4cn3)ccn2)CC1 [Compound 3098]

>  <RELATION SYMBOL>
<

>  <pEC50>
5.00

$$$$
>  <COMPOUND>
CN1CCN(c2cc(C(=O)Nc3cc4cc(-c5ccc(N)nc5)ncc4cn3)ccn2)CC1 [Compound 4434]

>  <RELATION SYMBOL>
<

>  <pEC50>
5.00

$$$$
>  <COMPOUND>
CN1CCN(Cc2cccc(C(=O)Nc3cc4cc(-c5cnn(C)c5)cnc4cn3)c2)CC1 [Compound 2892]

>  <RELATION SYMBOL>
<

>  <pEC50>
5.00

$$$$

* * *

// EC50 lookup, one value per entry
target: UniProtKB Q13627; assay: DYRK1A kinase activity (Ser/Thr 18 peptide Z-lyte FRET assay); conditions: recombinant DYRK1A, 30 μM ATP, one hour at room temperature;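 also: kinase activity read as coumarin/fluorescein emission ratio after development step, with unphosphorylated and phosphorylated peptide forms setting 0% and 100% controls, values from dose-response curves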

>  <MOLECULE>
CN1CCCN(c2cc(C(=O)Nc3cc4cc(-c5cn(C)nn5)ncc4cn3)ccn2)CC1

>  <EC50, nM>
56

$$$$
>  <MOLECULE>
CC(C)CN1CCC(CC(=O)Nc2cc3nc(-c4cnn(C)c4)ccc3cn2)C1 (stereo not shown)

>  <EC50, nM>
16

$$$$
>  <MOLECULE>
Cn1cc(-c2cc3cc(NC(=O)[C@H]4CCCN4)ncc3cn2)cn1

>  <EC50, nM>
71

$$$$
>  <MOLECULE>
CCN(CC)CC(=O)Nc1cc2cc(-c3cnn(C)c3CN3CCCCC3)ncc2cn1

>  <EC50, nM>
59

$$$$

* * *

system: α-smooth muscle actin (aSMA) positive LL29 cells; assay: Inhibition of the fibrotic process: αSMA staining in TGF-β1 treated LL29 fibroblasts from IPF patients; details: Homo sapiens, Fibroblast, read-out: percentage in parentheses after EC50 >10

>  <COMPOUND STRUCTURE>
O=C(Nc1cc2cc(-c3cncs3)ncc2cn1)C1CCN(C2COC2)CC1

>  <STUDY SYSTEM>
α-smooth muscle actin (aSMA) positive LL29 cells

>  <inhibition at 10 µM [%]>
4.9

$$$$
>  <COMPOUND STRUCTURE>
O=C(Nc1ncc2ccc(-c3cncc(NC4CCNCC4)n3)cc2n1)C1CCOCC1

>  <STUDY SYSTEM>
α-smooth muscle actin (aSMA) positive LL29 cells

>  <inhibition at 10 µM [%]>
53.7

$$$$
>  <COMPOUND STRUCTURE>
Cn1cc(-c2ccc3cnc(NC(=O)C4CCN(S(C)(=O)=O)CC4)nc3c2)cn1

>  <STUDY SYSTEM>
α-smooth muscle actin (aSMA) positive LL29 cells

>  <inhibition at 10 µM [%]>
23.2

$$$$
>  <COMPOUND STRUCTURE>
CNC(=O)c1ccc(C(=O)Nc2cc3cc(-c4cn(C)nn4)ncc3cn2)cn1

>  <STUDY SYSTEM>
α-smooth muscle actin (aSMA) positive LL29 cells

>  <inhibition at 10 µM [%]>
34.6

$$$$
>  <COMPOUND STRUCTURE>
Cn1cc(-c2cnc3cnc(NC(=O)c4ccc(OC5CCNCC5)cc4)cc3c2)cn1

>  <STUDY SYSTEM>
α-smooth muscle actin (aSMA) positive LL29 cells

>  <inhibition at 10 µM [%]>
7.3

$$$$
>  <COMPOUND STRUCTURE>
CN1CCCN(CC(=O)Nc2ncc3ccc(-c4cnn(C)c4)cc3n2)CC1

>  <STUDY SYSTEM>
α-smooth muscle actin (aSMA) positive LL29 cells

>  <inhibition at 10 µM [%]>
12.4

$$$$
>  <COMPOUND STRUCTURE>
Cn1cc(-c2ccc3cnc(NC(=O)c4ccc(OC5CCNCC5)cc4)nc3c2)nn1

>  <STUDY SYSTEM>
α-smooth muscle actin (aSMA) positive LL29 cells

>  <inhibition at 10 µM [%]>
9.3

$$$$
>  <COMPOUND STRUCTURE>
COC1CCN(CC(=O)Nc2ncc3ccc(-c4cn(C)nn4)cc3n2)CC1

>  <STUDY SYSTEM>
α-smooth muscle actin (aSMA) positive LL29 cells

>  <inhibition at 10 µM [%]>
5.7

$$$$
>  <COMPOUND STRUCTURE>
O=C(Nc1ncc2ccc(-c3cnco3)cc2n1)C1CCN(C(=O)CN2CCCC2)CC1

>  <STUDY SYSTEM>
α-smooth muscle actin (aSMA) positive LL29 cells

>  <inhibition at 10 µM [%]>
29.6

$$$$
>  <COMPOUND STRUCTURE>
Cc1nnc(-c2cc3cc(NC(=O)C4CCN(C(=O)c5ccccc5)CC4)ncc3cn2)s1

>  <STUDY SYSTEM>
α-smooth muscle actin (aSMA) positive LL29 cells

>  <inhibition at 10 µM [%]>
21.4

$$$$
>  <COMPOUND STRUCTURE>
CN1CCCN(CC(=O)Nc2cc3cc(-c4cnn(C)c4)cnc3cn2)CC1

>  <STUDY SYSTEM>
α-smooth muscle actin (aSMA) positive LL29 cells

>  <inhibition at 10 µM [%]>
37.9

$$$$
>  <COMPOUND STRUCTURE>
COC1CCN(CC(=O)Nc2cc3nc(-c4cn(C)nn4)ccc3cn2)CC1

>  <STUDY SYSTEM>
α-smooth muscle actin (aSMA) positive LL29 cells

>  <inhibition at 10 µM [%]>
9.8

$$$$
>  <COMPOUND STRUCTURE>
CNC(=O)c1ccc(C(=O)Nc2ncc3ccc(-c4cn(C)nn4)cc3n2)cn1

>  <STUDY SYSTEM>
α-smooth muscle actin (aSMA) positive LL29 cells

>  <inhibition at 10 µM [%]>
35.9

$$$$
>  <COMPOUND STRUCTURE>
CCN(CC)CC(=O)Nc1cc2cc(-c3cnn(C)c3CN3CCCCC3)cnc2cn1

>  <STUDY SYSTEM>
α-smooth muscle actin (aSMA) positive LL29 cells

>  <inhibition at 10 µM [%]>
27.8

$$$$
>  <COMPOUND STRUCTURE>
Cn1cc(-c2ccc3cnc(NC(=O)[C@H]4CCCN4)nc3c2)cn1

>  <STUDY SYSTEM>
α-smooth muscle actin (aSMA) positive LL29 cells

>  <inhibition at 10 µM [%]>
40.2

$$$$
>  <COMPOUND STRUCTURE>
C[C@H]1CCCN1CC(=O)Nc1cc2cc(-c3cnn(C)c3)cnc2cn1

>  <STUDY SYSTEM>
α-smooth muscle actin (aSMA) positive LL29 cells

>  <inhibition at 10 µM [%]>
13.8

$$$$
>  <COMPOUND STRUCTURE>
Cn1ncc(-c2ccc3cnc(NC(=O)c4ccnc(N5CCOCC5)c4)nc3c2)c1CN1CCOCC1

>  <STUDY SYSTEM>
α-smooth muscle actin (aSMA) positive LL29 cells

>  <inhibition at 10 µM [%]>
5.5

$$$$
>  <COMPOUND STRUCTURE>
CN1CCCN(c2cc(C(=O)Nc3ncc4ccc(-c5cn(C)nn5)cc4n3)ccn2)CC1

>  <STUDY SYSTEM>
α-smooth muscle actin (aSMA) positive LL29 cells

>  <inhibition at 10 µM [%]>
5.5

$$$$
>  <COMPOUND STRUCTURE>
CN1CCC(n2cc(C(=O)Nc3ncc4ccc(-c5cncc6[nH]ccc56)cc4n3)cn2)CC1

>  <STUDY SYSTEM>
α-smooth muscle actin (aSMA) positive LL29 cells

>  <inhibition at 10 µM [%]>
47.6

$$$$
